TARGET_UNDER_TEST: recombinant human Bcl-2 D103Y protein (Homo sapiens (Human), UniProt P10415, D103Y)
Sequence (P10415 whole entry D103Y): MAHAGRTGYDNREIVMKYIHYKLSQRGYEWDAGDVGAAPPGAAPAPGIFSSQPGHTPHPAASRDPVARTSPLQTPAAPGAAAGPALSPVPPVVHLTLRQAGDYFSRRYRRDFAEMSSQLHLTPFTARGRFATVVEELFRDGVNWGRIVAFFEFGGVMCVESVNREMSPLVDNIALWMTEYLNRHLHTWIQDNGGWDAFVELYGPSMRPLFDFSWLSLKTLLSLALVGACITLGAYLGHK
MEASUREMENT_DESCRIPTION: Bcl-2-D103Y Biochemical Assay (TR-FRET)
Assay type: binding
TEST_PARAMETERS: ratio of IC50
Rule: Ratio of Bcl-2 D103Y/Bcl-2 WT of 2 or more gives Satisfied; anything lower gives Not satisfied.

MOLECULE	CLASS_ASSIGNMENT
CC(C)c1ccccc1C1CN(C2CCC2)CCN1C1CC2(CCN(c3ccc(C(=O)NS(=O)(=O)c4ccc(NC[C@H]5CC[C@](C)(O)CC5)c([N+](=O)[O-])c4)c(Oc4cnc5[nH]ccc5c4)c3)CC2)C1 (some centres unmarked) [Example 5]	Satisfied
CC(C)c1ccccc1C1CN(C2CCOCC2)CCN1C1CC2(CCN(c3ccc(C(=O)NS(=O)(=O)c4ccc(NC[C@H]5CC[C@](C)(O)CC5)c([N+](=O)[O-])c4)c(Oc4cnc5[nH]ccc5c4)c3)CC2)C1 (some centres unmarked) [Example 10]	Satisfied
[2H]C([2H])([2H])Oc1cc(CN2CCN(C3CC4(C3)CN(c3ccc(C(=O)NS(=O)(=O)c5ccc(NC[C@H]6CC[C@](C)(O)CC6)c([N+](=O)[O-])c5)c(Oc5cnc6[nH]ccc6c5)c3)C4)[C@H](c3ccccc3C(C)C)C2)cc2c1OCC2(C)C [Example 324]	Not satisfied
CC(C)c1ccccc1C1CN(Cc2cc(F)cc(F)c2)CCN1C1CC2(CCN(c3ccc(C(=O)NS(=O)(=O)c4ccc(NC[C@H]5CC[C@](C)(O)CC5)c([N+](=O)[O-])c4)c(Oc4cnc5[nH]ccc5c4)c3)CC2)C1 (some centres unmarked) [Example 51]	Satisfied
[2H]C([2H])([2H])Oc1ccc(CN2CCN(C3CC4(C3)CN(c3ccc(C(=O)NS(=O)(=O)c5ccc(NC[C@H]6CC[C@](C)(O)CC6)c([N+](=O)[O-])c5)c(Oc5cnc6[nH]cc(F)c6c5)c3)C4)[C@H](c3ccccc3C(C)C)C2)cc1OC([2H])([2H])[2H] [Example 197]	Not satisfied
COc1cc(CN2CCN(C3CC4(C3)CN(c3ccc(C(=O)NS(=O)(=O)c5ccc(NCC6CCOCC6)c([N+](=O)[O-])c5)c(Oc5cnc6[nH]ccc6c5)c3)C4)[C@H](c3ccccc3C(C)C)C2)ccc1C1CC1 [Example 319]	Not satisfied
COc1ccc(CN2CCN(C3CC4(CCN(c5ccc(C(=O)NS(=O)(=O)c6ccc(NC[C@H]7CC[C@](C)(O)CC7)c([N+](=O)[O-])c6)c(Oc6cnc7[nH]ccc7c6)c5)CC4)C3)C(c3ccccc3C(C)C)C2)cc1F (some centres unmarked) [Example 134]	Not satisfied
COc1cc(CN2CCN(C3CC4(CCN(c5ccc(C(=O)NS(=O)(=O)c6ccc(NC[C@H]7CC[C@](C)(O)CC7)c([N+](=O)[O-])c6)c(Oc6cnc7[nH]ccc7c6)c5)CC4)C3)[C@H](c3ccccc3C(C)C)C2)cc2c1OCCC2 [Example 302]	Not satisfied

----------
TARGET_UNDER_TEST: Recombinant human Bcl-2 protein (Homo sapiens (Human))
Sequence (P10415 whole entry): as the sequence (P10415 whole entry D103Y) above, with Y103D counted along it
MEASUREMENT_DESCRIPTION: Bcl-2 TR-FRET Assay
Assay type: binding
TEST_PARAMETERS: Bcl-2 wild type, TR-FRET; read-out: Biochemical assay (IC50, nM) Bcl-2 WT
Note to self: use yes only for IC50 readings below 0.1 nM; a reading exactly at 0.1 nM still gets no.

MOLECULE	CLASS_ASSIGNMENT
CC(C)c1ccccc1C1CN(Cc2ccc(S(C)(=O)=O)cc2)CCN1C1CC2(CCN(c3ccc(C(=O)NS(=O)(=O)c4ccc(NC[C@H]5CC[C@](C)(O)CC5)c([N+](=O)[O-])c4)c(Oc4cnc5[nH]ccc5c4)c3)CC2)C1 (some centres unmarked)	yes
COc1cccc(CN2CCN(C3CC4(CCN(c5ccc(C(=O)NS(=O)(=O)c6cc7c(c([N+](=O)[O-])c6)N[C@H](C[C@H]6CC[C@H](O)CC6)CO7)c(Oc6cnc7[nH]ccc7c6)c5)CC4)C3)C(c3ccccc3C(C)C)C2)c1 (some centres unmarked)	no
COc1cc(CN2CCN(C3CC4(CCN(c5ccc(C(=O)NS(=O)(=O)c6ccc(NC[C@H]7CC[C@](C)(O)CC7)c([N+](=O)[O-])c6)c(Oc6cnc7[nH]ccc7c6)c5)CC4)C3)[C@H](c3ccccc3C(C)C)C2)ccc1F [Example 121a]	no
CC(C)c1ccccc1C1CN(Cc2ccccc2F)CCN1C1CC2(CCN(c3ccc(C(=O)NS(=O)(=O)c4ccc(NC[C@H]5CC[C@](C)(O)CC5)c([N+](=O)[O-])c4)c(Oc4cnc5[nH]ccc5c4)c3)CC2)C1 (some centres unmarked)	no
COc1cc(CN2CCN(C3CC4(CCN(c5ccc(C(=O)NS(=O)(=O)c6ccc(NC[C@H]7CC[C@](C)(O)CC7)c([N+](=O)[O-])c6)c(Oc6cnc7[nH]cc(F)c7c6)c5)CC4)C3)[C@H](c3ccccc3C(C)C)C2)cc2c1OCCC2	no
COc1cc(CN2CCN(C3CC4(C3)CN(c3ccc(C(=O)NS(=O)(=O)c5ccc(NC[C@H]6CC[C@](C)(O)CC6)c([N+](=O)[O-])c5)c(Oc5cnc6[nH]ccc6c5)c3)C4)[C@H](c3ccccc3C(C)C)C2)ccc1C1CC1	no
COCCN1CCN(C2CC3(CCN(c4ccc(C(=O)NS(=O)(=O)c5cc6c(c([N+](=O)[O-])c5)N[C@H](C[C@H]5CC[C@H](O)CC5)CO6)c(Oc5cnc6[nH]ccc6c5)c4)CC3)C2)C(c2ccccc2C(C)C)C1 (some centres unmarked)	yes
CC(C)c1ccccc1C1CN(Cc2ccccn2)CCN1C1CC2(CCN(c3ccc(C(=O)NS(=O)(=O)c4ccc(NC[C@H]5CC[C@](C)(O)CC5)c([N+](=O)[O-])c4)c(Oc4cnc5[nH]ccc5c4)c3)CC2)C1 (some centres unmarked)	yes
